The measurements presented in this section are drawn from patent US20240239894A1.

Target: T1, HumanB7-H4 (Homo sapiens, UniProt Q7Z7D3)
T1 construct: Human B7H4 ECD; FLAG; 10His; made in house
T1 sequence (Q7Z7D3 25-259 limits assumed): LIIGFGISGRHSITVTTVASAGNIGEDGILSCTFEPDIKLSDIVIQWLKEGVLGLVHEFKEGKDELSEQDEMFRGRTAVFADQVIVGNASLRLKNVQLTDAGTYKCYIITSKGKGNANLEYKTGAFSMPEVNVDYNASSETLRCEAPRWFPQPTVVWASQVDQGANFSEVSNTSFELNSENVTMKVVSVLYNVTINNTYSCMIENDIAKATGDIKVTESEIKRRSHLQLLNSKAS
Test: ForteBio Octet affinity
Format: binding
Details: hIgG1 (n = 1)
Readout: kon (M⁻¹ s⁻¹)
Answers are plain numbers, in M⁻¹ s⁻¹.

Form: molecule = ZY0EOB-F05: anti-B7-H4 antibody clone, VH SEQ ID NO: 35, VL SEQ ID NO: 36 (antibody, V domains shown) VH: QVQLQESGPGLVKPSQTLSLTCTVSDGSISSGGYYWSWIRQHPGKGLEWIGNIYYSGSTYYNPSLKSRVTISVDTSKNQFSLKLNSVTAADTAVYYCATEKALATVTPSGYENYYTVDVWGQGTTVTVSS VL: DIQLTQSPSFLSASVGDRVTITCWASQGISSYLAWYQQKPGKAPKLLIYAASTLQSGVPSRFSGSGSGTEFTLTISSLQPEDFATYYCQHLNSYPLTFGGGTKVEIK ; kon = 31000
